Below is a list of entries, each paired with its recorded composite z-score value.
- target or system: Follistatin (Homo sapiens)
- measurement notes: follistatin binders on small-molecule microarrays, primary screen, biochemical, small-molecule microarray, 635/667 nm fluorescence (AID 1132)
- condition notes: FST binding, 635 nm fluorescence, higher = more signal

Some entries whose results are on file:
| compound | target or system | composite z-score |
| --- | --- | --- |
| CC(C)N1CC=CC23O[C@@H]4C=CCCOC(=O)C4[C@H]2C(=O)N(CCCCCCO)[C@@H]3C1=O (some centres not stated) | Follistatin (Homo sapiens) | -0.851 |
| CCCC[C@@H](O)C1=C(C)C[C@H]2C(=O)N(Cc3ccccc3)C(=O)[C@H]2[C@H]1CO | Follistatin (Homo sapiens) | 0.438 |
| C=COC[C@H]1CN2[C@@H](CC[C@@H](C)[C@@H]2c2ccc(Br)cc2)C(=O)O1 | Follistatin (Homo sapiens) | 0.504 |
| O=C1O[C@@H](c2ccccc2)[C@@H](c2ccccc2)N2[C@@H](c3ccc(OCCO)cc3)[C@]3(C(=O)Nc4ccc(C#CCCO)cc43)[C@@H](C(=O)N3CCCCCCC3)[C@H]12 | Follistatin (Homo sapiens) | 1.39 |
| CCc1cc2c(nc1CC)CCN(CCC(C)=NOC(C)CN1CCCc3nc(C)c(C)cc31)C2 (configuration not stated) | Follistatin (Homo sapiens) | 1.31 |
| O=C1[C@H]2[C@H]3[C@H](O)[C@H](O)CC(=NO[C@@H]4O[C@H](CO)[C@@H](O)[C@H](O)[C@H]4O)[C@H]3CC[C@H]2C(=O)N1Cc1ccc2c(c1)OCO2 | Follistatin (Homo sapiens) | -0.164 |

Briefly, composite z-score measured for `CCCNC(=O)OC[C@H]1O[C@H](CCON=CC[C@@H]2C=C[C@H](OC(C)=O)[C@@H](COC(C)=O)O2)C=C[C@@H]1Oc1ccc(OC)cc1` : 0.461

###

- target or system: Calmodulin-1 (Homo sapiens) (UniProt P0DP23)
- measurement notes: calcium-bound CALM1 binders on microarrays, profiling panel, artefact control for SMM control-protein annotation, biochemical, small-molecule microarray, Cy5-labelled CALM1, plus calcium (AID 1112);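 note: score merges spot fluorescence with signal to noise from triplicate slides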
- condition notes: Cy5-CALM1 binding fluorescence, higher = more signal
measured quantity: composite z-score

Recorded results for 5 molecules are shown here.
| molecule | measured quantity | measured |
| --- | --- | --- |
| N#Cc1ccc(NN2C(C(O)c3cc(C(F)(F)F)cc(C(F)(F)F)c3)C=CC3C(=O)N(c4ccccc4)C(=O)C32)cc1 (stereo unspecified) | composite z-score | 0.892 |
| COc1ccc(O[C@H]2C=C[C@@H](c3ccccc3)O[C@@H]2COC(=O)N2CCCCC2)cc1 | composite z-score | -1.33 |
| COCCOC(=O)N1C(=O)[C@@]2(c3cc(C#Cc4ccc(OC)cc4)ccc31)[C@H](C(=O)N1CCN(c3ncccn3)CC1)[C@H]1C(=O)O[C@H](c3ccccc3)[C@H](c3ccccc3)N1[C@@H]2c1ccc(OCCO)cc1 | composite z-score | 0.397 |
| O=C1[C@H]2[C@H]3[C@H](O)[C@H](O)CC(=NOC[C@@H](O)COCc4ccco4)[C@H]3CC[C@H]2C(=O)N1C1CCCCC1 | composite z-score | -1.77 |
| CO[C@@H]1COC(=O)CC=C[C@@H](C)[C@@H]2C=C[C@@H](O)[C@@H](COC(=O)CC=C[C@H]1C)O2 | composite z-score | -2.11 |

From here, focus on the item given below.
Note to self: composite z-score recorded for CCOC(=O)[C@H](Cc1ccccc1)NC(=O)CCC1CC(OC(=O)NCc2ccc3c(c2)OCO3)CC2(CCCC(COC(=O)NCC(c3ccccc3)c3ccccc3)O2)O1 (stereo partly specified) was -0.0205

Values were extracted from PubChem BioAssay.
